Reference source for all entries: patent US20250084091A1

- assay method text: Uninfected host cell cytotoxicity counter screen
- Type: cell-based
- condition description: human
property name: CC50 at 24 h

Completed entries (count: 8):
Cc1cncc(C(=O)N2CCC(=C(c3ccccc3)c3ccccc3)CC2)c1 [NZ-783]: 25.6 µM
O=C(c1cccnc1)N1CCC(=C(c2ccccc2)c2ccccc2)CC1 [NZ-772]: > 39.8 µM
O=C(c1cc[nH]c(=O)c1)N1CCN(C2c3ccccc3CCc3ccccc32)CC1 [ZS-320]: > 39.8 µM
O=C(c1cncc(F)c1)N1CCC(=C(c2ccccc2)c2ccccc2)CC1 [NZ-780]: 30.1 µM
COc1cncc(C(=O)N2CCN(C(c3ccccc3)c3cccnc3)CC2)c1 (centres unmarked) [MKP-1194]: > 39.8 µM
O=C(c1cncc(Cl)c1)N1CCN(C2c3ccccc3CCc3ccccc32)CC1 [ZS-317]: > 39.8 µM
Cc1cncc(C(=O)N2CCN(C(c3ccccc3)c3cccc(Cl)c3)CC2)c1 (centres unmarked) [MKP-1272]: 33.6 µM
Cc1cncc(C(=O)N2CCC(=C3c4ccccc4CS(=O)(=O)c4ccccc43)CC2)c1 [NZ-801]: > 39.8 µM

# input Need CC50 at 24 h, item O=C(c1cncc(C(F)(F)F)c1)N1CCN(C(c2ccccc2)c2cccnc2)CC1 (centres unmarked) [MKP-1195]
# output > 39.8 µM

# input Need CC50 at 24 h, item O=C(c1cncc(Br)c1)N1CCN(C(c2ccccc2)c2ccsc2)CC1 (centres unmarked) [MKP-1220]
# output > 39.8 µM

# input Need CC50 at 24 h, item Cc1oncc1C(=O)N1CCN(C(c2ccccc2)c2ccccc2)CC1 [MKP-1332]
# output > 39.8 µM

# input Need CC50 at 24 h, item O=C(c1cncc(Br)c1)N1CCN(C2c3ccccc3CCc3ccccc32)CC1 [ZS-316]
# output > 39.8 µM
